Entries and their IC50 Fold Loss (M-NFS-60 cell proliferation)
Biological target: T1, human macrophage colony stimulating factor (M-CSF) (human, UniProt P09603 33-190, limits assumed)
T1 sequence: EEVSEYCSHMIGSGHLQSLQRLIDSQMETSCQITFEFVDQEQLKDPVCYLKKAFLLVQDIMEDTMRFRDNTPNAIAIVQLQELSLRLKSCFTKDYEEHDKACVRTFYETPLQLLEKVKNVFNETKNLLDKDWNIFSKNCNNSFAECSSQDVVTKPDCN
Assay: cell-based or functional assay
Give the number; fold is assumed, so skip it.

These recorded examples may help you get a feel for the data.
{"columns": ["binder", "reportedMeasurement"],
 "data": [
  ["Human Engineered RX1 antibody heRX1-5.G2 (antibody, V domains shown) VH: DVQLQESGPGLVKPSQTLSLTCTVTDYSITSDYAWNWIRQFPGKKLEWMGYISYSGSTSYNPSLKSRITISRDTSKNQFSLQLNSVTAADTATYYCASFDYAHAMDYWGQGTTVTVSS VL: EIVLTQSPGTLSVSPGERVTFSCRASQSIGTSIHWYQQKTGQSPRLLIKYASESISGIPDRFSGSGSGTDFTLTISRVESEDFADYYCQQINSWPTTFGQGTKLEIKR", 6.5],
  ["Human Engineered RX1 antibody heRX1-2.G2 (antibody, V domains shown) VH: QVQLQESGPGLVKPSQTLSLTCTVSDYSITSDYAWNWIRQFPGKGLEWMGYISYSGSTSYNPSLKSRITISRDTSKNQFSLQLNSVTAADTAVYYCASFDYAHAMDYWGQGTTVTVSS VL: EIVLTQSPGTLSVSPGERVTFSCRASQSIGTSIHWYQQKTGQSPRLLIKYASERISGIPDRFSGSGSGTDFTLTISRVESEDFADYYCQQINSWPTTFGQGTKLEIKR", 3.1],
  ["Human Engineered RX1 antibody heRX1-4.G2 (antibody, V domains shown) VH: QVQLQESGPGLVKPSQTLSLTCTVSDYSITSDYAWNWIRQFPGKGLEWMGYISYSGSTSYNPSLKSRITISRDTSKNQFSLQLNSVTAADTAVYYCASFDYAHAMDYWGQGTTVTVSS VL: EIVLTQSPGTLSVSPGERVTFSCRASQSIGTSIHWYQQKTGQAPRLLIKYASERATGIPDRFSGSGSGTDFTLTISRVESEDFADYYCQQINSWPTTFGQGTKLEIKR", 4.6],
  ["Human Engineered RX1 antibody heRX1-3.G2 (antibody, V domains shown) VH: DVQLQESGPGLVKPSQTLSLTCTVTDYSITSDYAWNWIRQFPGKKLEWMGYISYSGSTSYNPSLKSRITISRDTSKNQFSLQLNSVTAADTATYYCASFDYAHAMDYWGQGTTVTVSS VL: EIVLTQSPGTLSVSPGERVTFSCRASQSIGTSIHWYQQKTGQAPRLLIKYASERATGIPDRFSGSGSGTDFTLTISRVESEDFADYYCQQINSWPTTFGQGTKLEIKR", 5.3]
]}

Now consider a different binder.
Request: Item Human Engineered RX1 antibody heRX1-8.G2 (antibody, V domains shown) VH: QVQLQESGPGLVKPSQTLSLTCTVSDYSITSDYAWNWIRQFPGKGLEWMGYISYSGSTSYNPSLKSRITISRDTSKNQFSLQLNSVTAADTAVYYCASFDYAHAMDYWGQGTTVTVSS VL: EIVLTQSPGTLSVSPGERVTFSCRASQSIGTSIHWYQQKTGQAPRLLIKYASESISGIPDRFSGSGSGTDFTLTISRVESEDFADYYCQQINSWPTTFGQGTKLEIKR : provide IC50 Fold Loss (M-NFS-60 cell proliferation)
Result: 5.9
